Test: amyloid nucleation score (Sup35N fusion, yeast selection) (log enrichment); library NNK3; higher = more nucleation; inactive = no reads after selection;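 note: zero at mode of non-aggregating sequences after 7 days selection at 30°C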
MEASURE NAME: amyloid nucleation score

For orientation, consider the following solved cases.
SUBSTANCE: RKEMLKMRRFRSRGCWVILS
amyloid nucleation score: inactive

SUBSTANCE: PYYRRMPVDSARRTSKSK
amyloid nucleation score: inactive

SUBSTANCE: TPKLAALFS
amyloid nucleation score: -0.497

SUBSTANCE: ARWTMRAMLDWSIALSDHWV
amyloid nucleation score: inactive

SUBSTANCE: KAVVLGEWTRSFCSLDFNI
amyloid nucleation score: inactive

SUBSTANCE: DEISSFER
amyloid nucleation score: inactive

SUBSTANCE: VNLFHSYCMAISRIITISSL
amyloid nucleation score: inactive

SUBSTANCE: HKASKLVYLQWCRHECWSLV
amyloid nucleation score: inactive

# per-item lookup of amyloid nucleation score; items listed below
1. FECKLNRGWSKQARWLNKLY
2. SIPLLTQMWTVNGNRRWQTA
3. RPFGLAVTRWAPSFAGSRTS
4. FRITNWLSLYDKTEISHASI
5. LLCMWFCKSRLPRCSKCCSR
6. VTSESSSMGLTLSF
7. VCGASGCKWAVTNSRHDGNG

A)
1. 0.177
2. inactive
3. inactive
4. inactive
5. inactive
6. inactive
7. inactive

// for each substance below, give its amyloid nucleation score
1. GIMVSWIVGFMLCSILRMGD
2. KATWSCLHLATHSASPCQSA
3. SSRRYS
4. SRRYFYIDIRYRNIKP

A)
1: inactive; 2: inactive; 3: inactive; 4: inactive

Hello, I would appreciate it if you could give amyloid nucleation score for each entry below.
1. LGDALAEVNQDHADSGYRVT
2. KKFGSYEWSRI
3. MLGWCYLMTTCE
4. LCLFGLLYNIETFSIVVDYS
5. FFEFSTSVVYN
6. MVQNLQNRYGSWSCKFGFQR
7. LDGQFNNLYMYPSFYQEVAG

A)
inactive
inactive
inactive
inactive
inactive
inactive
inactive

Consider the following items and state reported amyloid nucleation score for each.
1. MAYLNLVQV
2. FIVYMSTHRA

A)
1. inactive
2. 1.67
